# System Under Test: T1, human CD47 protein, His Tag (ACRObiosystems, Cat. No. CD7-H5227) (human, UniProt Q08722 19-139)
# T1 construct: bought reagent; also called CD47-His; hCD47-His Tag; not shown: His tag
# T1 sequence (Q08722 19-139 limits assumed): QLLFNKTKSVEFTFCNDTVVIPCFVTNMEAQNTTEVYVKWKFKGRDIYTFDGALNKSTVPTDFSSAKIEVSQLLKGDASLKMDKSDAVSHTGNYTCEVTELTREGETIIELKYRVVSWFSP
# Assay Explanation: Biacore SPR, 25 C, antibody captured on CM5 chip
Value Type: Kd (nM)
Respond with the bare value in nM.

These recorded examples may help you get a feel for the data.
binder="hz3F10-3.2 (antibody, human IgG4 S228P, kappa, V domains shown, humanized 3F10, full-length heavy and light chains) VH: QVQLVQSGAEVKKPGSSVKVSCKASGYTFSRYWIEWVRQAPGQGLEWMGEFIPGSDTTNYAQKFQGRVTITAEISTNTAYMELSSLRSEDTAVYYCARGGLRRMDYWGQGTLVTVSS VL: DIQMTQSPSSLSASVGDRVTITCRASSSVSSTYLHWYQQKPGKAPKLLIYTTSTLASGVPSRFSGSGSGTSYTLTISSLQPEDFATYYCQQFSDSTWTFGQGTKLEIKR" value_type=Kd result_unit=nM reading=1.15
binder="hz3F10-1.1 (antibody, human IgG4 S228P, kappa, V domains shown, humanized 3F10, full-length heavy and light chains) VH: QVQLVQSGAEVKKPGSSVKVSCKASGYTFSRYWIEWVRQAPGQGLEWMGEFIPGSDTTNYAQKFQGRVTITADISTSTAYMELSSLRSEDTAVYYCARGGLRRMDYWGQGTLVTVSS VL: DIQMTQSPSSLSASVGDRVTITCRASSSVSSTYLHWYQQKPGKAPKLLIYTTSTLASGVPSRFSGSGSGTDFTLTISSLQPEDFATYYCQQFSDSTWTFGQGTKLEIKR" value_type=Kd result_unit=nM reading=0.946
binder="hz14A9-2.3 (antibody, human IgG4 S228P, kappa, V domains shown, humanized 14A9, full-length heavy and light chains) VH: QVQLVQSGAEVKKPGASVKVSCKVSGFNIEDDYIEWVRQAPGQGLEWMGRIDPANDKTKYAQKFQGRVTMTGDTSTNTVYMELSSLRSEDTAVYYCARPGLRRYYSMDYWGQGTLVTVSS VL: DIQMTQSPSSLSASVGDRVTITCKASENVVSYVSWYQQKPGKAPKLLIYGASNRYTGVPSRFIGSGSSTDFTLTISSLQPEDFATYYCGQSYSYPLTFGQGTKLEIKR" value_type=Kd result_unit=nM reading=0.204
binder="hz3F10-6.2 (antibody, human IgG4 S228P, kappa, V domains shown, humanized 3F10, full-length heavy and light chains) VH: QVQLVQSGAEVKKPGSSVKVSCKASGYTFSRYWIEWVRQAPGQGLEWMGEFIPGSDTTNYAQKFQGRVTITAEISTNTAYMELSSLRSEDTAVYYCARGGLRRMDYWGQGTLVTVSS VL: DIQMTQSPSSLSASVGDRVTITCRASSSVSSTYLHWYQQKPGKAPKLWIYTTSTLASGVPSRFSGSGSGTSYTLTISSLQPEDFATYYCQQFSESTWTFGQGTKLEIKR" value_type=Kd result_unit=nM reading=0.765

-- ask I am curious: what Kd value has been reported for hz3F10-4.2 (antibody, human IgG4 S228P, kappa, V domains shown, humanized 3F10, full-length heavy and light chains) VH: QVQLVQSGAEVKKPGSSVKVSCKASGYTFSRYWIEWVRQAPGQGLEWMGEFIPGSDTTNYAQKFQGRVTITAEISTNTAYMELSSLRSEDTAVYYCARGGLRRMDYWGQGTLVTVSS VL: DIQMTQSPSSLSASVGDRVTITCRASSSVSSTYLHWYQQKPGKAPKLLIYTTSTLASGVPSRFSGSGSGTSYTLTISSLQPEDFATYYCQQFSESTWTFGQGTKLEIKR ?
-- reply 1.34

-- ask I am curious: what Kd value has been reported for hz3F10-2.2 (antibody, human IgG4 S228P, kappa, V domains shown, humanized 3F10, full-length heavy and light chains) VH: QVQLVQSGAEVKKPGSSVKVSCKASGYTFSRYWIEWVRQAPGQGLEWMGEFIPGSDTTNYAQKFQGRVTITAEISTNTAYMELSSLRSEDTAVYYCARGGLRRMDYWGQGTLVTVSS VL: DIQMTQSPSSLSASVGDRVTITCRASSSVSSTYLHWYQQKPGKAPKLLIYTTSTLASGVPSRFSGSGSGTDFTLTISSLQPEDFATYYCQQFSESTWTFGQGTKLEIKR ?
-- reply 0.779

-- ask I am curious: what Kd value has been reported for hz3F10-6.1 (antibody, human IgG4 S228P, kappa, V domains shown, humanized 3F10, full-length heavy and light chains) VH: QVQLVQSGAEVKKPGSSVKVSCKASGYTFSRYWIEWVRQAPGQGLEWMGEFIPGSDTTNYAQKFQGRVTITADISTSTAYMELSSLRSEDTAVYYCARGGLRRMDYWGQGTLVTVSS VL: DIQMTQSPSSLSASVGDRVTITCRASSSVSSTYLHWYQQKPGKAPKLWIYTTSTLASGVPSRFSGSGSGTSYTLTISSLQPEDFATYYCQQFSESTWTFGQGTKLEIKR ?
-- reply 0.592

-- ask I am curious: what Kd value has been reported for hz3F10-1.2 (antibody, human IgG4 S228P, kappa, V domains shown, humanized 3F10, full-length heavy and light chains) VH: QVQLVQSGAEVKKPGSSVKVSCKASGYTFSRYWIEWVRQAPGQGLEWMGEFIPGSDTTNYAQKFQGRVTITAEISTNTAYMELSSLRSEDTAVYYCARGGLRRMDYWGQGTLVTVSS VL: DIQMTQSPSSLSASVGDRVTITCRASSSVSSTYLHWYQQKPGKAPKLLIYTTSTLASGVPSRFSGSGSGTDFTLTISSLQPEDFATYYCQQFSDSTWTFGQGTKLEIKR ?
-- reply 0.904

-- ask I am curious: what Kd value has been reported for hz3F10-3.1 (antibody, human IgG4 S228P, kappa, V domains shown, humanized 3F10, full-length heavy and light chains) VH: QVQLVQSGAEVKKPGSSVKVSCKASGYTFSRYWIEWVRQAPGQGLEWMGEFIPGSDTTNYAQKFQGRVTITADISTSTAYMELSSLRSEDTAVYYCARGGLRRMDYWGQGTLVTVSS VL: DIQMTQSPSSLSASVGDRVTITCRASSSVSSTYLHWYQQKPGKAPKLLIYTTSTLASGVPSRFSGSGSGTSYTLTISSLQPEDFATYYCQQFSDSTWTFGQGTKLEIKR ?
-- reply 1.53

-- ask I am curious: what Kd value has been reported for hz14A9-2.4 (antibody, human IgG4 S228P, kappa, V domains shown, humanized 14A9, full-length heavy and light chains) VH: QVQLVQSGAEVKKPGASVKVSCKVSGFNIEDDYIEWVRQAPGQGLEWMGRIDPANDKTKYAQKFQGRVTMTGDTSTNTVYMELSSLRSEDTAVYYCTRPGLRRYYSMDYWGQGTLVTVSS VL: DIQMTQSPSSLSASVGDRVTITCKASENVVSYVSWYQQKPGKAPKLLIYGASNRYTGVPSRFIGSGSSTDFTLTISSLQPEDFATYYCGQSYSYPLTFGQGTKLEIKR ?
-- reply 8.55

Cited source for all entries: patent US20240294635A1
